The reported measurements were obtained from the Human Domainome abundance scans (Beltran et al. 2025).

B1: Gamma-crystallin S, residues 96 to 176; numbered along this chain, P22914 (parent)
chain: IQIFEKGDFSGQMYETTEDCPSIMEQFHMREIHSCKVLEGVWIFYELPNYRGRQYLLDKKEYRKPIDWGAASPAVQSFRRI

Variants of: B1
assay-name: abundance fitness (aPCA) (normalised: wild type 0, dead -1); higher = more abundant; growth selection in yeast, the domain comes from the species named
applied-conditions: Homo sapiens
I'd appreciate it if you could supply abundance fitness values for the items below.
Give bare numbers.

{"variant-spec": "F78L", "obs-value": 0.059}
{"variant-spec": "K60R", "obs-value": -0.143}
{"variant-spec": "E39R", "obs-value": 0.054}
{"variant-spec": "H28C", "obs-value": 0.031}
{"variant-spec": "G69D", "obs-value": -0.155}

List reported abundance fitness for each of these variants:
1. M24C
2. E31N
3. P65Y
4. G69M
5. Q76W
6. R80Y

-0.016
-0.008
0.199
0.052
-0.441
-0.919
